The origin of these recorded values is BindingDB's records for patent US11814367.

Target sequence: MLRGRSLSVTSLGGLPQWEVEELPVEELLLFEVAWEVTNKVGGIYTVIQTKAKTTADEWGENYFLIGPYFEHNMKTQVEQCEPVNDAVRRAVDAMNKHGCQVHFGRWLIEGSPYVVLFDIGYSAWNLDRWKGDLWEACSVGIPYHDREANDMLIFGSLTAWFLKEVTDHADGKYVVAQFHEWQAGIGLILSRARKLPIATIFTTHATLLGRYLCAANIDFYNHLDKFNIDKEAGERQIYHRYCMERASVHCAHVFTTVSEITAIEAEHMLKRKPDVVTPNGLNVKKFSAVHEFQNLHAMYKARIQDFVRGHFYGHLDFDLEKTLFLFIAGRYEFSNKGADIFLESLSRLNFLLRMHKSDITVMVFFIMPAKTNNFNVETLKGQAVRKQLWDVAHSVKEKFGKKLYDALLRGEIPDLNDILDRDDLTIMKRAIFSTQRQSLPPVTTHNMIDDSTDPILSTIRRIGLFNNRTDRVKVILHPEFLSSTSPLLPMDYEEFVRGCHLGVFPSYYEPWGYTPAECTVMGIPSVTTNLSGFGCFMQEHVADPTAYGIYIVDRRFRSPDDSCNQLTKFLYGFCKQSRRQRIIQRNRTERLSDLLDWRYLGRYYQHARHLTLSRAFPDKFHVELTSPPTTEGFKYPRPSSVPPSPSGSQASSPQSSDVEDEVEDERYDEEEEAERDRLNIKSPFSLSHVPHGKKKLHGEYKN
pIC50: −log10 of the molar value.

>  <MOLECULE>
CC(C)c1ccc([C@@H](NC(=O)[C@@H]2C[C@@H](F)CN2C(=O)CNC(=O)N(C)C)c2ccccc2)cc1F [US11814367, Compound 361]

>  <pIC50>
< 4.00

$$$$
>  <MOLECULE>
NC(=O)NCC(=O)N1C[C@H](F)C[C@H]1C(=O)N[C@@H](c1ccccc1)c1ccc(C2CC2)c(F)n1 [US11814367, Compound 302]

>  <pIC50>
< 4.00

$$$$
>  <MOLECULE>
CC(=O)N1C[C@H](F)C[C@H]1C(=O)NC(c1ccccc1)c1ccc(C2CCC2)c(F)c1 (single isomer, unassigned) [US11814367, Compound 660]

>  <pIC50>
< 4.00

$$$$
